System: DeltatarO mutant
Experiment: S. aureus survival, RN4220 and DeltatarO strains – OD600, teichoic acid synthesis inhibitors, primary screen (AID 463173)
Details: S. aureus RN4220 wild type/DeltatarO growth, OD600, 18 h, screened at 18.75 µg/mL (by protocol)
In all, about 52,000 compounds went through this assay and about 4,300 (8.3%) were called active. Rule as the data show it: active = survival mostly below about 52% (no sharp cut-off); inactive = mostly above about 56%. The sample holds actives, similar compounds and a random draw of the others, so the mix is not that of the screen.
Respond using exactly one of the listed classes: active, inactive

Examples with answers:
1. COc1cc(CNc2ccc3[nH]c(=O)[nH]c3c2)cc(Cl)c1OCc1ccccc1F
inactive
2. Cn1c(SCc2ccccc2)nnc1-c1ccccc1
inactive
3. CCCN1C(C(=O)c2ccccc2)=C(OC(=O)COc2ccccc2)c2ccccc2S1(=O)=O
inactive
4. O=C(c1cc(-c2ccc(Br)cc2)n[nH]1)N1CCN(S(=O)(=O)c2ccc(Br)cc2)CC1
inactive
5. CCS(=O)(=O)N1CCc2cc(C(=O)NCCc3ccc(OC)c(OC)c3)ccc21
inactive

# input Record lookup: outcome of this test for CC(C(=O)Nc1ccccc1C(=O)N1CCCC1)n1nnc2ccccc21 (configuration not stated) ?
# output inactive

# input Record lookup: outcome of this test for O=C(Nc1ccc(CN2CCCCC2)cc1)c1cccnc1Cl ?
# output inactive

# input Record lookup: outcome of this test for Cc1nnc(SCc2ccccc2)n1N ?
# output active

# input Record lookup: outcome of this test for O=C(Nc1ccc(F)cc1F)c1cc2c(=O)n3ccccc3nc2s1 ?
# output inactive

# input Record lookup: outcome of this test for O=C(CN1CCCN(Cc2ccccc2Cl)S1(=O)=O)Nc1ccc2c(c1)OCCO2 ?
# output inactive

# input Record lookup: outcome of this test for CCOC(=O)c1c(NC(=O)c2cc(C)on2)sc(C)c1C ?
# output active

# input Record lookup: outcome of this test for COC(=O)c1cccnc1-n1c(=O)c2cccnc2n(CC(=O)Nc2c(C)cc(C)cc2C)c1=O ?
# output inactive

* * *

Tested on: DeltatarO mutant
Assay: S. aureus survival, RN4220 and DeltatarO strains – OD600, teichoic acid synthesis inhibitors, primary screen (AID 463173)
Conditions: S. aureus RN4220 wild type/DeltatarO growth, OD600, 18 h, active compounds read low, screened at 18.75 µg/mL (by protocol)
Among all 52,000 compounds or so, about 4,300 (8.3%) were called active. For the sample, actives were picked, then their nearest neighbours and some compounds at random.
readout_label: survival (%)
Answer with a number only, understood to be in %.

Some compounds with known survival results, for comparison:
1) COc1ccc(-n2ccn(CC(=O)Nc3ccc(C)cc3C)c(=O)c2=O)cc1
79
2) COc1cc(OC)c(NC(=O)CN(C)S(=O)(=O)c2ccc3c(c2)CCCC(=O)N3)cc1Cl
6
3) Cc1ccc(C2=NNC(c3cccnc3)=Nc3ccc(F)cc32)o1
96
4) CCc1ccc(NS(=O)(=O)c2ccc3[nH]cc(C(=O)NCCc4ccccc4)c(=O)c3c2)cc1
87

Query COc1ccc(-c2cc3c(=O)n(CC(=O)Nc4cc(C)ccc4C)ccn3n2)cc1 yields survival of 88

Query Cc1cccc2c(=O)c(N)c[nH]c12 yields survival of 105

Query COc1ccc(Cn2ccn(Cc3cccc(OC)c3)c(=O)c2=O)cc1 yields survival of 46

Query CCCCNC(=O)c1ccc2c(c1)N(CC)C(=O)c1ccccc1S2 yields survival of 102

Query COc1ccc2c(c1)c(=O)c(C(=O)c1ccc(C)c(C)c1)cn2CC(=O)Nc1ccc2c(c1)OCCO2 yields survival of 76

Query NC(=O)CSc1ncnc2c1cnn2-c1ccccc1 yields survival of 82

Query O=C(Cn1cc(S(=O)(=O)Cc2ccccc2Cl)c2ccccc21)Nc1cccc(C(F)(F)F)c1 yields survival of 75
